All figures here come from patent US20140005163A1.

Test system: PKB Ser473 phosphorylation in Rat1-myr-HA-p110 alpha cells
test_details: Reverse protein array assay, PKB Ser473 phosphorylation in Rat1-myr-p110 alpha cells
Assay type: cell-based
measurement_parameters: 0.5 h, pAkt Ser473, 30 minutes compound incubation, read-out: p-PKB IC50
quantity_name: log10(IC50) (log10 of the value in nM)
Heads up: the numbers are on a log10 scale; they represent IC50 in nM.

Below, each entry is followed by its recorded log10(IC50) result.
Cc1nn(C)cc1-n1c(=O)n(C)c2cnc3ccc(-c4ccc(CO)nc4)cc3c21    2.18
CCN(CC)C(=O)Cn1cc(-n2c(=O)n(C)c3cnc4ccc(-c5cnc(N6CCCC6)nc5)cc4c32)c(C)n1    1.45
CCOc1ccc(-c2ccc3ncc4c(c3c2)n(-c2c(C)nn(C)c2C)c(=O)n4C)cc1OCC    1.15

Batch request: log10(IC50) per item, same order as input.
1. COCc1ncc(-c2ccc3ncc4c(c3c2)n(-c2cn(C)nc2Cl)c(=O)n4C)cc1OC
2. CN(C)c1ccc(-c2ccc3ncc4c(c3c2)n(-c2cn(C)nc2Cl)c(=O)n4C)cn1
3. Cc1nn(C)cc1-n1c(=O)n(C)c2cnc3ccc(-c4cncc(N5CCC5)c4)cc3c21

1.30
0.70
1.26

###

system: PI3K delta (Homo sapiens, UniProt O00329)
Construct: for the full-length p110-d subunit are generated and fused by overlapping PCR; p85(iSH2) fusion partner (see partner chain) (N); His tag (C); Tn5 (Trichoplusia ni) or TiniPro insect cells
Sequence (O00329 with tags, fused parts or gaps limits assumed): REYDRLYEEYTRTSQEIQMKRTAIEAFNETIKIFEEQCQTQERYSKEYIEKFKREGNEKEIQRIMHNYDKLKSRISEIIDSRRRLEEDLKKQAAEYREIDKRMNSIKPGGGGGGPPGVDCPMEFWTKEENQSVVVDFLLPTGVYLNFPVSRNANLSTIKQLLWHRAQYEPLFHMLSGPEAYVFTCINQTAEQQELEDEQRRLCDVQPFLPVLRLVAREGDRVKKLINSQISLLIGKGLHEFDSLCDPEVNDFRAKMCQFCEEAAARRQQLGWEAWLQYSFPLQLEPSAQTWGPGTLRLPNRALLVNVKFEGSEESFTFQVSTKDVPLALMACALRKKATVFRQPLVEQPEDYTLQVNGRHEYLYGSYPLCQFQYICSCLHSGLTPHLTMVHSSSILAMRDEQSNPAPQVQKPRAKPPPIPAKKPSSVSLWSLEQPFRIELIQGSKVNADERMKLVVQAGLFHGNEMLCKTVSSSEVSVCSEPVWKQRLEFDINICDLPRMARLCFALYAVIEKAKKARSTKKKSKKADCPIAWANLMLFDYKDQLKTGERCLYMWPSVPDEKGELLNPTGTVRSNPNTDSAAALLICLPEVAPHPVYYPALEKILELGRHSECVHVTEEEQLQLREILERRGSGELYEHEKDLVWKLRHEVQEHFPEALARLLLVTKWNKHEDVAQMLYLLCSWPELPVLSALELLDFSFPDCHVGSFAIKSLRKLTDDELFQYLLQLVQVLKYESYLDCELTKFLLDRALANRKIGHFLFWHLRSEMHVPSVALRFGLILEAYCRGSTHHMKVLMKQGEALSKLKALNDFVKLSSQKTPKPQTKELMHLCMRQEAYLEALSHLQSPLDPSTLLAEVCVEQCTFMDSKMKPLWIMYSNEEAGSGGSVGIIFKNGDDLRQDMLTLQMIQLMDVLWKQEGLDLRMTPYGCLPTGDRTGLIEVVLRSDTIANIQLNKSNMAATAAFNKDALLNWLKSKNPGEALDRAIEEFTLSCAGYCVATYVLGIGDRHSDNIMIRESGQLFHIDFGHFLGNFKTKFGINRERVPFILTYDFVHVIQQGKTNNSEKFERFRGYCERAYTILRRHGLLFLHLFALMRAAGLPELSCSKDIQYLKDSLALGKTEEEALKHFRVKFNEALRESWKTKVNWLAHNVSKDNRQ
test_details: PI3K delta kinase assay (Kinase-Glo luminescence)
One threshold, 20 nM, splits the recorded IC50 values: lower ones are satisfied, equal or higher ones are not satisfied.

Cc1nn(C)c(C)c1-n1c(=O)n(C)c2cnc3ccc(-c4ccc(N(C)C)nc4)cc3c21    not satisfied

Does the reported IC50 of Cn1nccc1-n1c(=O)n(C)c2cnc3ccc(-c4ccc(NCCO)nc4)cc3c21 stay below 20 nM?
not satisfied

Does the reported IC50 of Cc1ncc(-c2ccc3ncc4c(c3c2)n(-c2cn(C)nc2C)c(=O)n4C)cc1N(C)C stay below 20 nM?
satisfied

Does the reported IC50 of Cn1cc(-n2c(=O)n(C)c3cnc4ccc(-c5ccc(CO)nc5)cc4c32)c(Cl)n1 stay below 20 nM?
satisfied

###

Test system: PKB Ser473 phosphorylation in Rat1-myr-HA-p110 alpha cells
test_details: Reverse protein array assay, PKB Ser473 phosphorylation in Rat1-myr-p110 alpha cells
Type: cell-based
measurement_parameters: 0.5 h, pAkt Ser473, 30 minutes compound incubation, read-out: p-PKB IC50
quantity_name: pIC50
Give bare numbers, as −log10 of the molar value.

CCOc1ccc(-c2ccc3ncc4c(c3c2)n(-c2cn(CCO)nc2C)c(=O)n4C)cn1 [Example 103.2]    8.15

Batch request: pIC50 per item, same order as input.
1. CNS(=O)(=O)c1cccc(-c2ccc3ncc4c(c3c2)n(-c2cn(C)nc2C)c(=O)n4C)c1 [Example 39]
2. CCOc1ccc(-c2ccc3ncc4c(c3c2)n(-c2cn(CC)nc2C)c(=O)n4C)cc1OCC [Example 27.1]

7.46
7.77

###

Exercise: state measured solubility for each of the compounds provided.
test_details: Solubility at pH 6.8
Assay type: physicochemical
measurement_parameters: pH 6.8, aqueous buffer, thermodynamic from solid; read-out: solubility

CCc1ncc(-c2ccc3ncc4c(c3c2)n(-c2cn(C)nc2C)c(=O)n4C)cc1NC(C)C    > 456 µg/mL
C=CCn1c(=O)n(-c2cn(C)nc2C)c2c3cc(-c4cncc(N)c4)ccc3ncc21    75 µg/mL
CCn1cc(-n2c(=O)n(C)c3cnc4ccc(-c5ccc(OC)nc5)cc4c32)c(C)n1    3 µg/mL
COc1ccc(-c2ccc3ncc4c(c3c2)n(-c2cn(C(C)C)nc2C)c(=O)n4C)cc1OC    5 µg/mL

Batch request: solubility per item, same order as input.
1. COc1ccc(-c2ccc3ncc4c(c3c2)n(-c2ccnn2C)c(=O)n4C)cn1
2. Cc1nn(C)cc1-n1c(=O)n(C)c2cnc3ccc(-c4ccc(N(C)C)nc4)cc3c21
3. CCOc1cc(-c2ccc3ncc4c(c3c2)n(-c2c(C)nn(C)c2C)c(=O)n4C)ccc1OC
4. CCOC(C)(C)c1cncc(-c2ccc3ncc4c(c3c2)n(-c2cn(C)nc2C)c(=O)n4C)c1

1: 4 µg/mL; 2: 7 µg/mL; 3: 3 µg/mL; 4: 4 µg/mL
